Reported growth inhibition values for the following compounds.
test: NCI Yeast Anticancer Drug Screen. Data for the sgs1 mgt1 strain (AID 161);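 further: 0% = growth of cultures given vehicle only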; settings: S. cerevisiae sgs1 mgt1 strain, at 50.0 µM, active compounds read high
The panel holds about 79,000 compounds, 15% with a hit somewhere; the sample as a whole holds those more often.
The figure you give is taken to be in %; do not add the unit.

Solved entries (count: 6):
{"compound": "CCCn1cc2c(=O)[nH]c(SC)nc2n1", "parameter measured": "growth inhibition", "reported": -1.35}
{"compound": "N#C/C(=C/N1CCNC1=S)C(N)=O", "parameter measured": "growth inhibition", "reported": 9.5}
{"compound": "Nc1ncc2ncn(C3CCC(CO)O3)c2n1 (stereo not given)", "parameter measured": "growth inhibition", "reported": -22.2}
{"compound": "COC(=O)[C@H](Cc1c[nH]c2ccccc12)NP(=O)(O)OCC1C=CC(n2cc(C)c(=O)[nH]c2=O)O1 (stereo not given in full)", "parameter measured": "growth inhibition", "reported": -9.6}
{"compound": "CCCCCCCC(=O)C(C)C", "parameter measured": "growth inhibition", "reported": 11.8}
{"compound": "Cc1cc(C)n(-c2nc(C)c(CCO)c(=O)[nH]2)n1", "parameter measured": "growth inhibition", "reported": -6.4}

## Input Please look up its growth inhibition: "CCCCCCCCCCCCCCC[N+](C)(C)C"
## Output 36.1

## Input Please look up its growth inhibition: "O=C1C(=C(c2ccccc2)N2CCCCC2)C(=O)c2ccccc21"
## Output 15.1

## Input Please look up its growth inhibition: "Cc1cc(Cl)nc2ccc(Cc3ccc(Cl)cc3)cc12"
## Output -5.2

## Input Please look up its growth inhibition: "CC1=C(C(=O)NCc2ccccc2)C(/C=C/c2ccccc2)C(C(=O)NCc2ccccc2)=C(C)N1"
## Output 23.7

## Input Please look up its growth inhibition: "Nc1ccc(I)cc1"
## Output -34.6

## Input Please look up its growth inhibition: "COc1cc(C(=O)NOCc2cccc(C(F)(F)F)c2)cc(OC)c1OC"
## Output 15.9

* * *

Experiment: NCI Yeast Anticancer Drug Screen. Data for the mlh1 rad18 strain (AID 175)
Details: S. cerevisiae mlh1 rad18 strain growth inhibition; at 50.0 µM; active compounds read high
Experimental: Growth inhibition of yeast strains with defined genetic alterations is measured as a screen for potential anti-cancer activity. Selected strains with alterations in DNA damage repair or cell cycle control were exposed to compounds and growth inhibition was measured relative to vehicle treated controls. The strain used in this assay is mlh1 rad18
The panel holds about 79,000 compounds, 15% with a hit somewhere; the sample as a whole holds those more often.
parameter measured: growth inhibition (%)
The figure you give is taken to be in %; do not add the unit.

Solved entries (count: 5):
{"compound": "O=c1nnc(O)c2n(O)cccc1-2", "unit of measure": "%", "growth inhibition": 14}
{"compound": "CCOC(=O)/C(=N\\O)C(C)(C)c1ccnc2ccccc12", "unit of measure": "%", "growth inhibition": 4.7}
{"compound": "CC1CCCCc2nc3c(c(=O)n21)CCCC3 (stereo not given)", "unit of measure": "%", "growth inhibition": 41}
{"compound": "N#CCCC1(CCC#N)CCc2ccccc2C1=O", "unit of measure": "%", "growth inhibition": 40}
{"compound": "O=c1c(=[n+]2ccc(=C([O-])c3ccccc3)cc2)/c(=N/S(=O)(=O)c2ccccc2)c(=O)c2ccccc12", "unit of measure": "%", "growth inhibition": 26.4}

## Input Please look up its growth inhibition: "Cc1ccc(/C=C/C(=O)C(C)(C)CN2CCCCC2)cc1"
## Output 17.9

## Input Please look up its growth inhibition: "CCCCNC(=O)c1c(Cl)c(Cl)c(Cl)c(Cl)c1C(=O)O"
## Output 28.2

## Input Please look up its growth inhibition: "COC(=O)CCCc1ccccc1N"
## Output -15.9

## Input Please look up its growth inhibition: "CCCOC(=O)c1cccnc1C(=O)OCCC"
## Output -6.4

## Input Please look up its growth inhibition: "Cc1nc2c(o1)C(=Nc1ccccc1)c1ccccc1C2=Nc1ccccc1"
## Output -9.65

## Input Please look up its growth inhibition: "N#C/C(=C\NC(=S)NCc1ccccc1)c1nc2ccccc2s1"
## Output 61.5

## Input Please look up its growth inhibition: "Cc1ccc(-c2nc3ccccc3c(=O)n2/N=C/c2ccc(Cl)cc2Cl)cc1"
## Output 21.4

## Input Please look up its growth inhibition: "Clc1ccc(-c2nc3ccccc3cc2N2CCCCC2)cc1"
## Output -7.7

## Input Please look up its growth inhibition: "CCCCCOS(C)(=O)=O"
## Output -20.1

## Input Please look up its growth inhibition: NC1c2c(Br)sc(N3CCCC3)c2C(=O)C1O (stereo not given)
## Output -30.3

## Input Please look up its growth inhibition: "C/C([O-])=N\[N+](C)(C)Cc1ccccc1"
## Output 5.8

## Input Please look up its growth inhibition: CC(NC(=O)OCc1ccccc1)NC(=O)C(CC(=O)OC(C)(C)C)NC(=O)OC(C)(C)C (stereo not given)
## Output -29.3

## Input Please look up its growth inhibition: "C[N+](C)=c1ccc2nc3ccc(N)cc3sc-2c1"
## Output -76.8

## Input Please look up its growth inhibition: "O=C(c1cccc([N+](=O)[O-])c1)c1cccs1"
## Output -4.05
